System: Clostridium perfringens
Assay: Antibacterial activity against Clostridium perfringens assessed as zone of inhibition at 500 ug/ml after 24 hrs by agar diffusion method
Assay type: functional
Conditions: read-out: IZ
Reported values of zone of inhibition at 500 µg/mL for individual entries
measured_metric: zone of inhibition at 500 µg/mL (mm)

1. Cc1ccc(-c2n[nH]cc2-c2nc(-c3ccccc3)c(-c3ccccc3)[nH]2)cc1
5
2. Clc1cc(-c2n[nH]cc2-c2nc(-c3ccc(Br)cc3)c(-c3ccc(Br)cc3)[nH]2)c(Cl)s1
4
3. COC(=O)/C=C1/C(=O)NC(=S)N1/N=C/c1c[nH]nc1-c1ccc(Cl)cc1Cl
6
4. COC(=O)/C=C1/C(=O)NC(=S)N1/N=C/c1c[nH]nc1-c1ccc(C)cc1
5
5. Clc1ccc(-c2n[nH]cc2-c2nc(-c3ccccc3)c(-c3ccccc3)[nH]2)c(Cl)c1
5
6. CSc1ccc(-c2n[nH]cc2-c2nc(-c3ccc(Br)cc3)c(-c3ccc(Br)cc3)[nH]2)cc1
3
7. CN[C@@H]1[C@H](O[C@H]2[C@H](O[C@H]3[C@H](O)[C@@H](O)[C@H](N=C(N)N)[C@@H](O)[C@@H]3N=C(N)N)O[C@@H](C)[C@]2(O)C=O)O[C@@H](CO)[C@H](O)[C@H]1O [STREPTOMYCIN]
16
8. CSc1ccc(-c2n[nH]cc2-c2nc(-c3ccccc3)c(-c3ccccc3)[nH]2)cc1
3
9. Clc1ccc(-c2n[nH]cc2-c2nc(-c3ccc(Br)cc3)c(-c3ccc(Br)cc3)[nH]2)c(Cl)c1
2
10. COC(=O)/C=C1/C(=O)NC(=S)N1/N=C/c1c[nH]nc1-c1cc(Cl)sc1Cl
11
